Data provenance is the Kinase Knowledgebase extract (Sharma et al. 2016).

# testedSystem: UniProt:P24941
# protocolDescription: Enzyme Assay
# testConditions: concentration not given here
reportedEndpoint: inhibition (%)
Numbers only here, please. The scale is %.

These recorded examples may help you get a feel for the data.
compound	inhibition / %
Cc1cc(F)ccc1OCC(=O)N1CCC(Nc2nc(N)c(C(=O)c3c(F)cccc3F)s2)CC1	80
C=CCc1ccccc1OCC(=O)N1CCC(Nc2nc(N)c(C(=O)c3c(F)cccc3F)s2)CC1	76
Cc1c(C(=O)N2CCC(Nc3nc(N)c(C(=O)c4c(F)cccc4F)s3)CC2)oc2ccccc12	38
CC(O)(C(=O)N1CCC(Nc2nc(N)c(C(=O)c3c(F)cccc3F)s2)CC1)c1ccccc1 (stereo not drawn)	49
Nc1nc(NC2CCN(C(=O)c3ccc4ccccc4n3)CC2)sc1C(=O)c1c(F)cccc1F	9

The compound identified as `Nc1nc(NC2CCN(C(=O)CCCCCc3ccccc3)CC2)sc1C(=O)c1c(F)cccc1F` registered its inhibition at 12

====

# testedSystem: CDK2 (human)
# protocolDescription: Enzyme Assay
# testConditions: concentration not given here
Categories are assigned from the measured inhibition using these intervals: lower level = under 30%, middle level = from 30% up to 50%, upper level = 50% and over

Worked set:
compound	testedSystem	groupLabel
CCCN(CCC)[C@@H](C)C(=O)N1CCC(Nc2nc(N)c(C(=O)c3c(F)cccc3F)s2)CC1	CDK2 (human)	lower level
COC(C(=O)N1CCC(Nc2nc(N)c(C(=O)c3c(F)cccc3F)s2)CC1)c1ccccc1 (configuration not stated)	CDK2 (human)	lower level
Nc1nc(NC2CCN(C(=O)[C@@H]3C[C@H]3c3ccccc3)CC2)sc1C(=O)c1c(F)cccc1F	CDK2 (human)	lower level

Which band does `Nc1nc(NC2CCN(C(=O)c3ccccn3)CC2)sc1C(=O)c1c(F)cccc1F` fall in?
upper level

====

# testedSystem: CDK2 (human)
# protocolDescription: Enzyme Assay
# testConditions: concentration not given here
Recorded inhibition by entry
Numbers only here, please. The scale is %.

CC(C)CCCC(=O)N1CCC(Nc2nc(N)c(C(=O)c3c(F)cccc3F)s2)CC1 71
Cc1ccc(C(=O)N2CCC(Nc3nc(N)c(C(=O)c4c(F)cccc4F)s3)CC2)cc1 60
Cc1cccc(/C=C/C(=O)N2CCC(Nc3nc(N)c(C(=O)c4c(F)cccc4F)s3)CC2)c1 50
CC(C)c1ccc(/C=C/C(=O)N2CCC(Nc3nc(N)c(C(=O)c4c(F)cccc4F)s3)CC2)cc1 52
CCOC(=O)CCCC(=O)N1CCC(Nc2nc(N)c(C(=O)c3c(F)cccc3F)s2)CC1 -6

The compound identified as `Nc1nc(NC2CCN(C(=O)OCC3c4ccccc4-c4ccccc43)CC2)sc1C(=O)c1c(F)cccc1F` registered its inhibition at -12

The compound identified as `CCCCCC#CC(=O)N1CCC(Nc2nc(N)c(C(=O)c3c(F)cccc3F)s2)CC1` registered its inhibition at 62

The compound identified as `CC1(CCC(=O)N2CCC(Nc3nc(N)c(C(=O)c4c(F)cccc4F)s3)CC2)SCCS1` registered its inhibition at 78

The compound identified as `CC(=O)O[C@H](C(=O)N1CCC(Nc2nc(N)c(C(=O)c3c(F)cccc3F)s2)CC1)c1ccccc1` registered its inhibition at 41

====

# testedSystem: CDK2 (human) (UniProt P24941)
# protocolDescription: Enzyme Assay
# testConditions: concentration not given here
reportedEndpoint: inhibition (%)
Numbers only here, please. The scale is %.

The compound identified as `Nc1nc(NC2CCN(C(=O)CCCN3C(=O)C=CC3=O)CC2)sc1C(=O)c1c(F)cccc1F` registered its inhibition at 43

====

# testedSystem: CDK2 (human) (UniProt P24941)
# protocolDescription: Enzyme Assay
# testConditions: concentration not given here
reportedEndpoint: inhibition (%)
Numbers only here, please. The scale is %.

compound	reportedEndpoint	assayValue
Nc1nc(NC2CCN(C(=O)CS/C=C\c3ccccc3)CC2)sc1C(=O)c1c(F)cccc1F	inhibition	59
Nc1nc(NC2CCN(C(=O)c3nc4ccccc4nc3O)CC2)sc1C(=O)c1c(F)cccc1F	inhibition	12

The compound identified as `Nc1nc(NC2CCN(C(=O)Cc3cccc(O)c3)CC2)sc1C(=O)c1c(F)cccc1F` registered its inhibition at 44

The compound identified as Nc1nc(NC2CCN(C(=O)C3CCc4ccccc4O3)CC2)sc1C(=O)c1c(F)cccc1F (stereo not given) registered its inhibition at 6

The compound identified as CC(C)CC(O)C(=O)N1CCC(Nc2nc(N)c(C(=O)c3c(F)cccc3F)s2)CC1 (stereo not given) registered its inhibition at 57

====

# testedSystem: CDK2 (human) (UniProt P24941)
# protocolDescription: Enzyme Assay
# testConditions: concentration not given here
Categories are assigned from the measured inhibition using these intervals: bottom end: < 30%; midrange: ≥ 30% and < 60%; top end: ≥ 60%

molecule	groupLabel
Nc1nc(NC2CCN(C(=O)C(O)c3ccccc3Cl)CC2)sc1C(=O)c1c(F)cccc1F (centres undefined)	midrange
NC(=O)Nc1ccc(C(=O)N2CCC(Nc3nc(N)c(C(=O)c4c(F)cccc4F)s3)CC2)cc1	top end

Which band does `CS(=O)(=O)CS(=O)(=O)N1CCC(Nc2nc(N)c(C(=O)c3c(F)cccc3F)s2)CC1` fall in?
bottom end

Which band does `CCOc1ccc(/C=C/C(=O)N2CCC(Nc3nc(N)c(C(=O)c4c(F)cccc4F)s3)CC2)cc1` fall in?
midrange

Which band does `Cc1cc(C)cc(CC(=O)N2CCC(Nc3nc(N)c(C(=O)c4c(F)cccc4F)s3)CC2)c1` fall in?
top end

Which band does `Nc1nc(NC2CCN(C(=O)C3(O)CC3)CC2)sc1C(=O)c1c(F)cccc1F` fall in?
midrange

====

# testedSystem: CDK2 (human) (UniProt P24941)
# protocolDescription: Enzyme Assay
# testConditions: concentration not given here
// label = label 1 if inhibition is not less than 60%, otherwise label 0

Worked set:
CCN(CC)CCC(=O)N1CCC(Nc2nc(N)c(C(=O)c3c(F)cccc3F)s2)CC1 label 0
CN(C(=O)N1CCC(Nc2nc(N)c(C(=O)c3c(F)cccc3F)s2)CC1)c1ccccc1 label 0
Nc1ccc(C(=O)NCC(=O)N2CCC(Nc3nc(N)c(C(=O)c4c(F)cccc4F)s3)CC2)cc1 label 1
Nc1nc(NC2CCN(C(=O)Cc3ccc(Cl)cc3)CC2)sc1C(=O)c1c(F)cccc1F label 0
Nc1nc(NC2CCN(C(=O)Cc3ccncc3)CC2)sc1C(=O)c1c(F)cccc1F label 0
Nc1nc(NC2CCN(C(=O)/C=C/c3ccccc3O)CC2)sc1C(=O)c1c(F)cccc1F label 1
COc1c(C)cccc1C(=O)N1CCC(Nc2nc(N)c(C(=O)c3c(F)cccc3F)s2)CC1 label 0
Nc1nc(NC2CCN(C(=O)CNc3ccccc3)CC2)sc1C(=O)c1c(F)cccc1F label 0

Now consider a different compound.
# bool: inhibition of `C[C@@H](C(=O)N1CCC(Nc2nc(N)c(C(=O)c3c(F)cccc3F)s2)CC1)c1ccccc1` >= 60%
label 0

====

# testedSystem: CDK2 (human)
# protocolDescription: Enzyme Assay
# testConditions: concentration not given here
reportedEndpoint: inhibition (%)
Numbers only here, please. The scale is %.

These recorded examples may help you get a feel for the data.
compound	reportedEndpoint	valueUnit	assayValue
Nc1nc(NC2CCN(C(=O)N3CCCC3)CC2)sc1C(=O)c1c(F)cccc1F	inhibition	%	-10
CC(C)C[C@H](O)C(=O)N1CCC(Nc2nc(N)c(C(=O)c3c(F)cccc3F)s2)CC1	inhibition	%	70
CCCC[C@H]1CC[C@H](C(=O)N2CCC(Nc3nc(N)c(C(=O)c4c(F)cccc4F)s3)CC2)CC1	inhibition	%	45
CC(Oc1ccccc1)C(=O)N1CCC(Nc2nc(N)c(C(=O)c3c(F)cccc3F)s2)CC1 (stereo unspecified)	inhibition	%	-15
CCCCc1ccc(C(=O)N2CCC(Nc3nc(N)c(C(=O)c4c(F)cccc4F)s3)CC2)nc1	inhibition	%	-45

The compound identified as `Nc1nc(NC2CCN(S(=O)(=O)c3c(F)cccc3F)CC2)sc1C(=O)c1c(F)cccc1F` registered its inhibition at -8

The compound identified as `Nc1nc(NC2CCN(C(=O)c3cnccn3)CC2)sc1C(=O)c1c(F)cccc1F` registered its inhibition at 58

The compound identified as `CN(C)C(=O)CCC(=O)N1CCC(Nc2nc(N)c(C(=O)c3c(F)cccc3F)s2)CC1` registered its inhibition at 49

====

# testedSystem: CDK2 (human)
# protocolDescription: Enzyme Assay
# testConditions: concentration not given here
Recorded inhibition by entry
Numbers only here, please. The scale is %.

The compound identified as `Nc1nc(NC2CCN(C(=O)C3CC3)CC2)sc1C(=O)c1c(F)cccc1F` registered its inhibition at -2

The compound identified as `Cc1nc(C)c(C(=O)N2CCC(Nc3nc(N)c(C(=O)c4c(F)cccc4F)s3)CC2)s1` registered its inhibition at 67

The compound identified as Nc1nc(NC2CCN(C(=O)C3COc4ccccc4O3)CC2)sc1C(=O)c1c(F)cccc1F (stereo not drawn) registered its inhibition at 58
